- targetOrTestSystem: CYP1A2 (Homo sapiens)
- assayProcedure: biochemical
- Design: CYP off-target inhibition panel
pIC50: −log10 of the molar value.

compound: O=C(c1cnc2c(-c3cnco3)cc(C(F)(F)F)cn12)N1C2CCC1COC2 [compound 1]
pIC50: 5.20

###

- targetOrTestSystem: CYP46A1 (Homo sapiens, UniProt Q9Y6A2)
- Sequence (Q9Y6A2 whole entry): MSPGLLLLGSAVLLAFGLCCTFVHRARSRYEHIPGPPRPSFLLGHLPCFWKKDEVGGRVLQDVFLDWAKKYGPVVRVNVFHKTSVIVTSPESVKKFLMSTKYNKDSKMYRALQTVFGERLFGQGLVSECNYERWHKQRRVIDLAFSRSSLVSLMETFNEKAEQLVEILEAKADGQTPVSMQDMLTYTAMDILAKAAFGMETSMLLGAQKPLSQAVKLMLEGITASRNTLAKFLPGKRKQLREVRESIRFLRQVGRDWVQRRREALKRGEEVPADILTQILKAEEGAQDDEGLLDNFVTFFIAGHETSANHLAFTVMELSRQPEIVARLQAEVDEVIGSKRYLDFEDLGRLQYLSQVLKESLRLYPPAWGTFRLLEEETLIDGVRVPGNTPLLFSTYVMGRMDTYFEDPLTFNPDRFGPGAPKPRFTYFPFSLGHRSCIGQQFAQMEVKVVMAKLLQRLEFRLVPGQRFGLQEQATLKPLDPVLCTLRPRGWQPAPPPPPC
- assayProcedure: recombinant human CYP46A1 microsomes, cholesterol to 24-hydroxycholesterol, LC-MS/MS ([…] with testosterone as substrate)
- Type: biochemical
pIC50: −log10 of the molar value.
quantityName: pIC50

structureSmilesString: O=C(c1cnc2c(-c3cnco3)cc(C(F)(F)F)cn12)N1C2CCC1COC2
reported: 7.66

###

- targetOrTestSystem: CYP2C8 (Homo sapiens)
- Sequence (P10632 whole entry): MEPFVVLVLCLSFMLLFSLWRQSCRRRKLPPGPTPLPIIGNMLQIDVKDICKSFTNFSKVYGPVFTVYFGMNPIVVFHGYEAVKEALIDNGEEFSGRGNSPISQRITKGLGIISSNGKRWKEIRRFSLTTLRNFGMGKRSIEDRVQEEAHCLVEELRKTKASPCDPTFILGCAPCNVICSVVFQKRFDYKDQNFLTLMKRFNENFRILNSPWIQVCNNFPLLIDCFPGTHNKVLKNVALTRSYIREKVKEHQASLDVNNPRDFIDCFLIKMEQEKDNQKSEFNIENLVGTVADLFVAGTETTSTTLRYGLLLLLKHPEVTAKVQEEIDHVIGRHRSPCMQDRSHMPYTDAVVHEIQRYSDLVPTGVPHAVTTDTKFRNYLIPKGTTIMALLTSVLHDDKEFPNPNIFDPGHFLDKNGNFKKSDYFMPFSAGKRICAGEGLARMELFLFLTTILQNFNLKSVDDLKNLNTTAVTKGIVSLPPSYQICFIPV
- assayProcedure: biochemical
- Design: CYP off-target inhibition panel
quantityName: IC50

molecule: O=C(c1cnc2c(-c3cnco3)cc(C(F)(F)F)cn12)N1C2CCC1COC2 [compound 1]
reported: > 50 µM

###

- targetOrTestSystem: CYP2B6 (Homo sapiens, UniProt P20813)
- Sequence (P20813 whole entry): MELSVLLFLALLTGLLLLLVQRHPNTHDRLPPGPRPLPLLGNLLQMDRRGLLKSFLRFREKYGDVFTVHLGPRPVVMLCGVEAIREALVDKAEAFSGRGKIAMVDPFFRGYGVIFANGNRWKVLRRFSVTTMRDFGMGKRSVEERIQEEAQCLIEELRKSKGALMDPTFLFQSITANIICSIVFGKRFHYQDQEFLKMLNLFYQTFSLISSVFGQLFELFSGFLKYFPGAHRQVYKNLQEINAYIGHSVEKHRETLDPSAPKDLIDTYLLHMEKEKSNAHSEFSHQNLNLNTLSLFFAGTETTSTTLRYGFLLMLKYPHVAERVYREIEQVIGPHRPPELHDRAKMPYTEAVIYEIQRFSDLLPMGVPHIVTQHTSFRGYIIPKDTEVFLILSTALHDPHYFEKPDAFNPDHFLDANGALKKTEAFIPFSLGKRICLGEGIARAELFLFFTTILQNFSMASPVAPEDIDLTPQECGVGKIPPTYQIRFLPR
- assayProcedure: biochemical
- Parameters: CYP off-target inhibition panel
pIC50: −log10 of the molar value.
quantityName: pIC50

structureSmilesString: O=C(c1cnc2c(-c3cnco3)cc(C(F)(F)F)cn12)N1C2CCC1COC2
quantityName: pIC50
reported: < 4.30

###

- targetOrTestSystem: CYP2C8 (Homo sapiens)
- assayProcedure: biochemical
- Set-up: CYP off-target inhibition panel
- setupConditions: read-out: compound 2
quantityName: IC50

structureSmilesString: O=C(c1cccnc1-c1ccncn1)N1CCC(O)(Cc2ccc(F)cc2)CC1
reported: > 50 µM

###

- targetOrTestSystem: CYP2C9 (Homo sapiens, UniProt P11712)
- Sequence (P11712 whole entry): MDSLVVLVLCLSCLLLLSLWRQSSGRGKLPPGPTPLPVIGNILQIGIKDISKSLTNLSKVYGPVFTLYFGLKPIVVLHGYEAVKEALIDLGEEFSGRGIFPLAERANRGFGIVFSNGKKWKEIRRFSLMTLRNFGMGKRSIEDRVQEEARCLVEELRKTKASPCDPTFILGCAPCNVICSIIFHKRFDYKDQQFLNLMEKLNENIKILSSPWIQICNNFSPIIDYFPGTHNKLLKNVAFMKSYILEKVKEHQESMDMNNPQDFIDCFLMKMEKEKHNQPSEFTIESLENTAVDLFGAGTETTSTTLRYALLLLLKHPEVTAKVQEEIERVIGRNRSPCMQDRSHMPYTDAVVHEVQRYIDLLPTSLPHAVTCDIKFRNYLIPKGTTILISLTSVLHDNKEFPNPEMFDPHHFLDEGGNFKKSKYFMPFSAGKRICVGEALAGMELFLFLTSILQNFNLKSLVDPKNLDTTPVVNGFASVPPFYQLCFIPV
- assayProcedure: biochemical
- Parameters: CYP off-target inhibition panel

structureSmilesString: O=C(c1cnc2c(-c3cnco3)cc(C(F)(F)F)cn12)N1C2CCC1COC2
IC50: > 50 µM

###

- targetOrTestSystem: Human PXR (Homo sapiens, UniProt O75469)
- Construct: gene NR1I2
- Sequence (O75469 whole entry): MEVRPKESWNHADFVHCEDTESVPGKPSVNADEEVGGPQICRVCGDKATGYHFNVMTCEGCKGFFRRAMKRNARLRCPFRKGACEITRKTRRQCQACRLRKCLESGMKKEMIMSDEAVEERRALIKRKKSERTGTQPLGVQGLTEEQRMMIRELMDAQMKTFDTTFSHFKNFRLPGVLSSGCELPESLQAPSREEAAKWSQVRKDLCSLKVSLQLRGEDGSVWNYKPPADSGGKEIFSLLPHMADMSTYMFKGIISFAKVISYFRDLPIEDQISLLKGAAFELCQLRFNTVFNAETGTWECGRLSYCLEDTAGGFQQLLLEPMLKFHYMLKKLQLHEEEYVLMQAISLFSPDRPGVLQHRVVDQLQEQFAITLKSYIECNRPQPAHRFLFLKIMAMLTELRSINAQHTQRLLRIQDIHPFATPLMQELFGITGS
- assayProcedure: in vitro
- Parameters: CEREP off-target binding panel, per cent inhibition at 10 uM, n = 2
quantityName: inhibition at 10 µM

compound: O=C(c1cccnc1-c1ccncn1)N1CCC(O)(Cc2ccc(F)cc2)CC1 [compound 2]
quantityName: inhibition at 10 µM
reported: 8.8%
--
compound: O=C(c1cnc2c(-c3cnco3)cc(C(F)(F)F)cn12)N1C2CCC1COC2 [compound 1]
quantityName: inhibition at 10 µM
reported: 4.8%

###

- targetOrTestSystem: CYP46A1 (Homo sapiens)
- assayProcedure: recombinant human CYP46A1 microsomes, cholesterol to 24-hydroxycholesterol, LC-MS/MS ([…] with testosterone as substrate)
- Type: biochemical
pIC50: −log10 of the molar value.

compound: C[C@@H](c1ncncc1F)[C@](O)(Cn1cncn1)c1ccc(F)cc1F [Voriconazole]
targetOrTestSystem: CYP46A1 (Homo sapiens)
pIC50: 4.91

###

- targetOrTestSystem: CYP1A2 (Homo sapiens, UniProt P05177)
- Sequence (P05177 1-516): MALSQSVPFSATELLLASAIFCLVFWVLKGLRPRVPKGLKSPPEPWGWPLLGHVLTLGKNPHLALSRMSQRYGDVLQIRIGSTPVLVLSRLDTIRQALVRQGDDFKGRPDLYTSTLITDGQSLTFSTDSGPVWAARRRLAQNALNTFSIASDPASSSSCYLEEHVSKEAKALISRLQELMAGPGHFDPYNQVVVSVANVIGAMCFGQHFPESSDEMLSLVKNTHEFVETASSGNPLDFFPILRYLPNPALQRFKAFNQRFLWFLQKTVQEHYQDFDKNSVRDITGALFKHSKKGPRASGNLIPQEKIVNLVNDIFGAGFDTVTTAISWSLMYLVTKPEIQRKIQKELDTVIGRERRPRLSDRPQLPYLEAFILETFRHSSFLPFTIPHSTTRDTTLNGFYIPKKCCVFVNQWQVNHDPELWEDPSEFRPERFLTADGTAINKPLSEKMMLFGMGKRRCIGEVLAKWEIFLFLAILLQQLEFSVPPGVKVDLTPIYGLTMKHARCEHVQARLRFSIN
- assayProcedure: biochemical
- Set-up: CYP off-target inhibition panel
- setupConditions: read-out: compound 2
pIC50: −log10 of the molar value.

structureSmilesString: O=C(c1cccnc1-c1ccncn1)N1CCC(O)(Cc2ccc(F)cc2)CC1
pIC50: < 4.30
